# system tested: PDE (bovine brain-derived phosphodiesterase, majority PDE4 isozyme)
# Construct: bovine brain-derived PDE (Sigma), majority PDE4 isozyme
# assay name: PDE-Glo phosphodiesterase assay, […] cAMP substrate
readout name: IC50 (µM)
Numbers only, in µM.

Example cases with answers are listed next.
- molecule: "Oc1ccc(/C=C/c2cc(O)cc(O)c2)cc1"
  system tested: "PDE (bovine brain-derived phosphodiesterase, majority PDE4 isozyme)"
  endpoint unit: "µM"
  IC50: 19
- molecule: "Oc1ccc(/N=N/c2ccccc2)cc1"
  system tested: "PDE (bovine brain-derived phosphodiesterase, majority PDE4 isozyme)"
  endpoint unit: "µM"
  IC50: 26.5

Next item in the queue.
## Task What measured IC50 is associated with Oc1ccc(/C=C/c2ccccc2)cc1 [T4HS, trans-4-hydroxystilbene] on PDE (bovine brain-derived phosphodiesterase, majority PDE4 isozyme)?
## Result 27.8

Source listed as paper PMC4370454.
